Origin of measurements: patent US20230233569A1

target: KRAS G12V (Homo sapiens, UniProt P01116+P62937, G12V); experiment: Ras-Raf disruption / FRET / MOA assay (BRAF RBD); type: biochemical; conditions: Ras-Raf disruption, with Cyclophilin A; read-out: KRAS G12V FRET data IC50
Sequence (P01116 1-169 isoform P01116-2 G12V limits assumed, one chain of several): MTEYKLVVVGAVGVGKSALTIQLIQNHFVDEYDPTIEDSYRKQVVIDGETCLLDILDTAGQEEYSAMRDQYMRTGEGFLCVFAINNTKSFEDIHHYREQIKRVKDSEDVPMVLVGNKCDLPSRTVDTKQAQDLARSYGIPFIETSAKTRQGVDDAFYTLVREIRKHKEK
measure.name: IC50

[[record]]
molecule = "CCn1c(-c2cccnc2[C@H](C)OC)c2c3cc(ccc31)-c1cc(O)cc(c1)C[C@H](NC(=O)[C@H](C(C)C)N(C)C(=O)N(C)C1CN(C(=O)[C@H]3CN3)C1)C(=O)N1CCC[C@H](N1)C(=O)OCC(C)(C)C2 (atropisomer, axis not shown) [Example 203]"
recorded_measurement = "100 to 1000 nM"

[[record]]
molecule = "CCn1c(-c2cccnc2[C@H](C)OC)c2c3cc(ccc31)-c1cc(O)cc(c1)C[C@H](NC(=O)[C@H](C1CCCC1)N1CC[C@]3(CCN(C(=O)[C@@H]4N[C@@H]4C4CC4)C3)C1=O)C(=O)N1CCC[C@H](N1)C(=O)OCC(C)(C)C2 [Example 214]"
recorded_measurement = "10 to 100 nM"


Return reported IC50; argument: CCn1c(-c2cccnc2[C@H](C)OC)c2c3cc(ccc31)-c1csc(n1)C[C@H](NC(=O)[C@H](C(C)C)N(C)C(=O)N1CCCN(C(=O)[C@H]3CN3)CC1)C(=O)N1CCC[C@H](N1)C(=O)OCC(C)(C)C2 (atropisomer, axis not shown) [Example 222]
100 to 1000 nM

What do you get for CCn1c(-c2cccnc2[C@H](C)OC)c2c3cc(ccc31)-c1cc(O)cc(c1)C[C@H](NC(=O)[C@H](C(C)C)N1CC[C@@]3(CCN(C[C@@H]4CN4)C3)C1=O)C(=O)N1CCC[C@H](N1)C(=O)OCC(C)(C)C2 [Example 138] ?
1000 to 10000 nM

// repeat for CCn1c(-c2cccnc2[C@H](C)OC)c2c3cc(ccc31)-c1cc(O)cc(c1)C[C@H](NC(=O)[C@H](C(C)C)N(C)C(=O)C1CCN(S(=O)(=O)[C@H]3CN3C)CC1)C(=O)N1CCC[C@H](N1)C(=O)OCC(C)(C)C2 (single isomer, unassigned) [Example 108] and report
100 to 1000 nM

---

molecular target: KRAS G13C (Homo sapiens, UniProt P01116+P62937, G13C); assay: Disruption of BRAF RBD interaction with Ras (FRET / MOA assay, with Cyclophilin A); type: biochemical; conditions: read-out: KRAS G13C FRET data, IC50
Sequence (P01116 1-169 isoform P01116-2 G13C, one chain of several): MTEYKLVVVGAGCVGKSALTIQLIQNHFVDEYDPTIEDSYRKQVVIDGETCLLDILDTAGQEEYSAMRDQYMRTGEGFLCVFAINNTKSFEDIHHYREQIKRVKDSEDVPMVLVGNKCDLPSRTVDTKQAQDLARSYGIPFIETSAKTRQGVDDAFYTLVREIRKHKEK
pIC50: −log10 of the molar value.
measure.name: pIC50

# lookup: pIC50 of CCn1c(-c2cccnc2[C@H](C)OC)c2c3cc(ccc31)-c1csc(n1)C[C@H](NC(=O)[C@H](C(C)C)N(C)C(=O)N1CC(C#N)(N(C)C)C1)C(=O)N1CCC[C@H](N1)C(=O)OCC(C)(C)C2
6.00 to 7.00

Same question for CCn1c(-c2cccnc2[C@H](C)OC)c2c3cc(ccc31)-c1csc(n1)C[C@H](NC(=O)C1CCC1)C(=O)N1CCC[C@H](N1)C(=O)OCC(C)(C)C2 please.
6.00 to 7.00

Further, for CCn1c(-c2cccnc2[C@H](C)OC)c2c3cc(ccc31)-c1cc(O)cc(c1)C[C@H](NC(=O)[C@H](C(C)C)N(C)C(=O)[C@@H]1OC[C@@H]3CCC[C@@H]31)C(=O)N1CCC[C@H](N1)C(=O)OCC(C)(C)C2 ?
7.00 to 8.00

Another: CCn1c(-c2cccnc2[C@H](C)OC)c2c3cc(ccc31)-c1csc(n1)C[C@H](NC(=O)[C@H](C(C)C)N(C)C(=O)N(C)C1CC1)C(=O)N1CCC[C@H](N1)C(=O)OCC(C)(C)C2
6.00 to 7.00

Try this compound next: CCn1c(-c2cccnc2[C@H](C)OC)c2c3cc(ccc31)-c1cc(O)cc(c1)C[C@H](NC(=O)[C@H](C(C)C)N(C)C(=O)[C@H]1C[C@@H]1C)C(=O)N1CCC[C@H](N1)C(=O)OCC(C)(C)C2
6.00 to 7.00

---

IC50 values, listed per item
biological target: NRAS G12C (Homo sapiens, UniProt P01111+P62937, G12C); assay: Disruption of BRAF RBD interaction with Ras (FRET / MOA assay, with Cyclophilin A); assay type: biochemical; details: NRAS G12C; read-out: NRAS G12C FRET data IC50
Sequence (P01111 whole entry G12C, one chain of several): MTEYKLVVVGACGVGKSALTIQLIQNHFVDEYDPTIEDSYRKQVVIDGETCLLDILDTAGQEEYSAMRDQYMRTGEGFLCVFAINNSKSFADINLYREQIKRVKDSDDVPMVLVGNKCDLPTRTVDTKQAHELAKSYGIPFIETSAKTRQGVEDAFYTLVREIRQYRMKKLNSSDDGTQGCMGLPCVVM

Reference set, count: 3
[[record]]
compound = "CCn1c(-c2cccnc2[C@H](C)OC)c2c3cc(ccc31)-c1cc(O)cc(c1)C[C@H](NC(=O)[C@H](C(C)C)N(C)C(=O)[C@H]1CCN(C(=O)[C@]3(C)CCCN3C)C1)C(=O)N1CCC[C@H](N1)C(=O)OCC(C)(C)C2"
test_target = "NRAS G12C (Homo sapiens, UniProt P01111+P62937, G12C)"
recorded_measurement = "10 to 100 nM"

[[record]]
compound = "CCn1c(-c2cccnc2[C@H](C)OC)c2c3cc(ccc31)-c1csc(n1)C[C@H](NC(=O)[C@H](C(C)C)N(C)C(=O)N1CCN3CCOC[C@@H]3C1)C(=O)N1CCC[C@H](N1)C(=O)OCC(C)(C)C2"
test_target = "NRAS G12C (Homo sapiens, UniProt P01111+P62937, G12C)"
recorded_measurement = "100 to 1000 nM"

[[record]]
compound = "CCn1c(-c2cccnc2[C@H](C)OC)c2c3cc(ccc31)-c1csc(n1)C[C@H](NC(=O)[C@H](CC1CC1)N(C)C(=O)N1CC(OC)C1)C(=O)N1CCC[C@H](N1)C(=O)OCC(C)(C)C2 (atropisomer, axis not shown)"
test_target = "NRAS G12C (Homo sapiens, UniProt P01111+P62937, G12C)"
recorded_measurement = "< 10 nM"


Bench note: what IC50 did CCn1c(-c2cccnc2[C@H](C)OC)c2c3cc(ccc31)-c1csc(n1)C[C@H](NC(=O)[C@H](C(C)C)N(C)C(=O)N1CC(NC)C1)C(=O)N1CCC[C@H](N1)C(=O)OCC(C)(C)C2 (atropisomer, axis not shown) show?
100 to 1000 nM

Also CCn1c(-c2cccnc2[C@H](C)OC)c2c3cc(ccc31)-c1csc(n1)C[C@H](NC(=O)[C@@H](OC(=O)N1CC(OC)C1)C(C)C)C(=O)N1CCC[C@H](N1)C(=O)OCC(C)(C)C2 , if possible.
100 to 1000 nM

Field entry: CCn1c(-c2cccnc2COC)c2c3cc(ccc31)-c1cc(O)cc(c1)C[C@H](NC(=O)[C@H](C(C)C)N(C)C(=O)[C@H]1CCN(C(=O)CN)C1)C(=O)N1CCC[C@H](N1)C(=O)OCC(C)(C)C2
1000 to 10000 nM

CCn1c(-c2cccnc2[C@H](C)OC)c2c3cc(ccc31)-c1cc(O)cc(c1)C[C@H](NC(=O)[C@H](C(C)C)N(C)C(=O)[C@H]1CCCN[C@@H]1C)C(=O)N1CCC[C@H](N1)C(=O)OCC(C)(C)C2 , same question.
100 to 1000 nM

Quick one: CCn1c(-c2cccnc2[C@H](C)OC)c2c3cc(ccc31)-c1csc(n1)C[C@H](NC(=O)[C@H](C(C)C)N(C)C(=O)N1CCN(C(=O)CN(C)C)CC1)C(=O)N1CCC[C@H](N1)C(=O)OCC(C)(C)C2 (atropisomer, axis not shown)
10 to 100 nM

---

molecular target: KRAS Q61H (Homo sapiens, UniProt P01116+P62937, Q61H); experiment: Disruption of BRAF RBD interaction with Ras (FRET / MOA assay, with Cyclophilin A); type: biochemical; details: KRAS Q61H; read-out: KRAS Q61H FRET data IC50
Sequence (P01116 1-169 isoform P01116-2 Q61H limits assumed): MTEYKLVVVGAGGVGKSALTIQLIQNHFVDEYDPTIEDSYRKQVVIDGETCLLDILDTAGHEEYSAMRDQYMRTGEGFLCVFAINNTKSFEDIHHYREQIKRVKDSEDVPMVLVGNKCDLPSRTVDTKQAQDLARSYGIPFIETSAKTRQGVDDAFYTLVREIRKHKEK
Sequence (P62937 whole entry): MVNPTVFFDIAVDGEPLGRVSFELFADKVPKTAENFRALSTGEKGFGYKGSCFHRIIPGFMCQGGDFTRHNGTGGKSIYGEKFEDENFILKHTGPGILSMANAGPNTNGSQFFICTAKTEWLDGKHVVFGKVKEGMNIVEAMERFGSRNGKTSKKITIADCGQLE
pIC50: −log10 of the molar value.
Below, each entry is listed with its recorded pIC50.

[[record]]
molecule = "CCn1c(-c2cccnc2[C@H](C)OC)c2c3cc(ccc31)-c1csc(n1)C[C@H](NC(=O)[C@H](C(C)C)N(C)C(=O)N1C3CC1CS(=O)(=O)C3)C(=O)N1CCC[C@H](N1)C(=O)OCC(C)(C)C2 [Example A496]"
recorded_measurement = "6.00 to 7.00"

[[record]]
molecule = "CCn1c(-c2cc(N3CCN(C)CC3)cnc2[C@H](C)OC)c2c3cc(ccc31)-c1cccc(c1)C[C@H](NC(=O)[C@H](C(C)C)N(C)C(=O)[C@@H]1OCC[C@@H]1c1ccccc1)C(=O)N1CCC[C@H](N1)C(=O)OCC(C)(C)C2 (atropisomer, axis not shown) [Example A562]"
recorded_measurement = "7.00 to 8.00"


Which measured pIC50 belongs to CCn1c(-c2cc(C3CCN(C)CC3)cnc2[C@H](C)OC)c2c3cc(ccc31)-c1csc(n1)C[C@H](NC(=O)[C@H](C(C)C)N(C)C(=O)N1CC(C3COC3)C1)C(=O)N1CCC[C@H](N1)C(=O)OCC(C)(C)C2 [Example A465] , tested on KRAS Q61H (Homo sapiens, UniProt P01116+P62937, Q61H)?
7.00 to 8.00

Next record, please: CCn1c(-c2cccnc2[C@H](C)OC)c2c3cc(ccc31)-c1csc(n1)C[C@H](NC(=O)[C@H](C(C)C)N(C)C(=O)N1CC(N(C)S(C)(=O)=O)C1)C(=O)N1CCC[C@H](N1)C(=O)OCC(C)(C)C2 (atropisomer, axis not shown) [Example A550]
7.00 to 8.00
